Test system: HeLa
Assay: Increase of polyubiquitinated accumulation in human HeLa cells at 10 uM after 8 hrs by immunoblotting
Assay type: functional, cell-based
The source made the active and inactive calls. No cut-off for these calls is given here.
Can you answer with just one of these options? active, inactive

QUERY: Write down the call the test reported for this compound. Item: O=C(O)CC[C@H](NC(=O)N1C/C(=C\c2ccc(Cl)c(Cl)c2)C(=O)/C(=C/c2ccc(Cl)c(Cl)c2)C1)C(=O)O
RESULT: inactive

QUERY: Write down the call the test reported for this compound. Item: CC(C)C[C@H](NC(=O)N1C/C(=C\c2ccc(Cl)c(Cl)c2)C(=O)/C(=C/c2ccc(Cl)c(Cl)c2)C1)C(=O)O
RESULT: active

QUERY: Write down the call the test reported for this compound. Item: O=C1/C(=C/c2ccc(Cl)c(Cl)c2)CN(C(=O)N[C@@H](Cc2ccc(O)cc2)C(=O)O)C/C1=C\c1ccc(Cl)c(Cl)c1
RESULT: active

QUERY: Write down the call the test reported for this compound. Item: O=C1/C(=C/c2ccc(Cl)c(Cl)c2)CN(C(=O)N[C@@H](Cc2ccccc2)C(=O)O)C/C1=C\c1ccc(Cl)c(Cl)c1
RESULT: active

---

Kindly state IC50 for each of the entries shown.
System: HeLa
Experiment: Cytotoxicity against HPV18 transformed human HeLa cells after 48 hrs by XTT assay
Type: functional, cell-based
Give the value, in units of µM, as a plain number.

QUERY: # lookup: IC50 of CC(C)C[C@H](NC(=O)N1C/C(=C\c2ccc(Cl)c(Cl)c2)C(=O)/C(=C/c2ccc(Cl)c(Cl)c2)C1)C(=O)O
RESULT: 10

QUERY: # lookup: IC50 of CN1C/C(=C\c2ccc(B(O)O)cc2)C(=O)/C(=C/c2ccc(B(O)O)cc2)C1
RESULT: 8

QUERY: # lookup: IC50 of O=C1/C(=C/c2ccc(Cl)c(Cl)c2)CN(C(=O)N[C@@H](Cc2ccccc2)C(=O)O)C/C1=C\c1ccc(Cl)c(Cl)c1
RESULT: 0.32

---

Test system: HeLa
Test: Cytotoxicity against HPV18 transformed human HeLa cells after 48 hrs by XTT assay
Assay type: functional, cell-based
Readout Name: IC50

QUERY: Enter reported IC50 observed with HeLa for O=C(O)CC[C@H](NC(=O)N1C/C(=C\c2ccc(Cl)c(Cl)c2)C(=O)/C(=C/c2ccc(Cl)c(Cl)c2)C1)C(=O)O
RESULT: > 50 µM

QUERY: Enter reported IC50 observed with HeLa for O=C(O)CC[C@H](NC(=O)N1C/C(=C\c2ccc(Cl)c(Cl)c2)C(=O)/C(=C/c2ccc(Cl)c(Cl)c2)C1)C(=O)N[C@@H](CC(=O)O)C(=O)O
RESULT: > 50 µM

QUERY: Enter reported IC50 observed with HeLa for NCCCC[C@H](NC(=O)N1C/C(=C\c2ccc(Cl)c(Cl)c2)C(=O)/C(=C/c2ccc(Cl)c(Cl)c2)C1)C(=O)O
RESULT: > 50 µM

QUERY: Enter reported IC50 observed with HeLa for N=C(N)NCCC[C@H](NC(=O)[C@H](CCCCN)NC(=O)N1C/C(=C\c2ccc(Cl)c(Cl)c2)C(=O)/C(=C/c2ccc(Cl)c(Cl)c2)C1)C(=O)O
RESULT: > 50 µM

QUERY: Enter reported IC50 observed with HeLa for O=C1/C(=C/c2ccc(Cl)c(Cl)c2)CN(C(=O)N[C@@H](Cc2ccccc2)C(=O)N[C@@H](Cc2ccc(O)cc2)C(=O)O)C/C1=C\c1ccc(Cl)c(Cl)c1
RESULT: > 50 µM

QUERY: Enter reported IC50 observed with HeLa for O=C1/C(=C/c2ccc(Cl)c(Cl)c2)CN(C(=O)N[C@@H](Cc2ccc(O)cc2)C(=O)O)C/C1=C\c1ccc(Cl)c(Cl)c1
RESULT: 10 µM

Data provenance: ChEMBL document CHEMBL1649417
